Biological target: T1, extracellular domain (ECD) of murine IGSF11, biotinylated (mouse, UniProt P0C673 23-240, biotinylated (site not stated))
T1 construct: also called Mouse IGSF11; murine IGSF11 protein
T1 sequence: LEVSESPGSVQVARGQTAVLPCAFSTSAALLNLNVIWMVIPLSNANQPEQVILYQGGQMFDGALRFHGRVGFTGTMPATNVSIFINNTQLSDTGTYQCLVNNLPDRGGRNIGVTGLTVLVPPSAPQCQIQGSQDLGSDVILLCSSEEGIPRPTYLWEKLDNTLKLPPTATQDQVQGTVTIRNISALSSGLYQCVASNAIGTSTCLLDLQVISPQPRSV
Test: ELISA, scFv; RFU grade (*** >1.0, ** 0.5-1.0, * 0.1-0.5)
experimentalEndpoint: relative fluorescent units (RFU), ELISA

Here are 4 binders together with their reported answers.
[[record]]
binder = "A-003 (scFv format) (scFv, V domains shown, scFv) VH: VQLVQSGAEVKKPGSSVKVSCKASGGTFSSYAISWVRQAPGQGLEWMGGIIPIFGTANYAQKFQGRVTITADESTSTAYMELSSLRSEDTAVYYCASPRIQLWAAGGFDYWGQGTLVTVSS VL: QSALTQPASVSGSPGQSITISCTGTSSDVGGYNLVSWYQQHPGKAPKLMIYDVSNRPSGVSNRFSGSKSGNTASLTISGLQAEDEADYYCSSFTTSTTLVFGGGTKLTVL"
experimentalresult = "0.1 to 0.5 rfu"

[[record]]
binder = "A-035 (scFv format) (scFv, V domains shown, scFv) VH: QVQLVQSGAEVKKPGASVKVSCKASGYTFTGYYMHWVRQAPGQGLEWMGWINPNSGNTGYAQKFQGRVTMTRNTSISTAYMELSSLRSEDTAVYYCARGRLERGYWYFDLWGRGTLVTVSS VL: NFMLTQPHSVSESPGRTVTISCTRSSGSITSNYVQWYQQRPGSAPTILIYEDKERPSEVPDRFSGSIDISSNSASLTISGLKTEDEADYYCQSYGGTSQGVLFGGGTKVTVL"
experimentalresult = "> 1 rfu"

[[record]]
binder = "A-034 (scFv format) (scFv, V domains shown, scFv) VH: QMQLVQSGGGLVKPGGSLRLSCAASGFTFSSYTMNWVRQAPGKGLEWVSSISSIGTYIYYADSVKGRFTISRDNAKNSLYLQMNSLRAEDTAVYYCARVLLSGSYYGYFDSWGQGTLVTVSS VL: QSVLTQPPSVSGAPGQRVTISCTGSSSNIGAGYDVHWYQQLPGTAPKLFIYGNSNRPSGVPDRFSGSKSGTSASLAITGLQAEDEADYYCQSYDSSLSGYVFGTGTKVTVL"
experimentalresult = "0.5 to 1 rfu"

[[record]]
binder = "A-037 (scFv format) (scFv, V domains shown, scFv) VH: QVQLVQSGAEVKKPGASVKVSCKASGYTFTGYYMHWVRQAPGQGLEWMGWINPNSGNTGYAQKFQGRVTMTRNTSISTAYMELSSLRSEDTAVYYCARGGQQQLVLDDYWGQGTLVTVSS VL: NFMLTQPHSVSESPGKTVTISCTGSSGSIASNYVQWYQQRPGSAPTTVIYEDNQRPSGVPDRFSGSIDSSSNSASLTISGLKTEDEADYYCQSYDSSNQRVFGGGTKLTVL"
experimentalresult = "0.1 to 0.5 rfu"


Ask: Looking for the measured relative fluorescent units (RFU), ELISA of A-001 (scFv format) (scFv, V domains shown, scFv) VH: EVQLVESGGGLVKPGGSLRLSCAASGFTFSSYSMNWVRQAPGKGLEWVSSISSSSSYIYYADSVKGRFTISRDNAKNSLYLQMNSLRAEDTAVYYCVRSIIVQALGITSVFDIWGQGTMVTVSS VL: AIRLTQSPSSLSASVGDRVTISCRASQIISNHLNWYQQKPGKAPKLLIYAASRLQTGVPSRFSGSGSETDYTLTISSLQPEDFATYYCQQSYSNPRTFGHGTKVEIK , can you help?
Reply: > 1 rfu
